B1: TPR 5TU (parent)
chain: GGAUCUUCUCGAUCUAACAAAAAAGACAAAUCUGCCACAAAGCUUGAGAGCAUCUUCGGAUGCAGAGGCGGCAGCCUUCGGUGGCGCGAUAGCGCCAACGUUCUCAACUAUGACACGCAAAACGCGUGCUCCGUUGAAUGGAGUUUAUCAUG

Variants of: B1
Assay: polymerase ribozyme fitness, log enrichment relative to wild type (log ratio); higher = more active; in vitro selection for triplet polymerase activity
Variants at the floor of the assay were thinned out.
Kind request: treat -3 as inclusive, so polymerase ribozyme fitness (log ratio) at -3 or higher is rule met, anything lower is rule not met.

As a guide, the following entries are already answered.
- sequence-change: "A3C U15A A19U C75U C87U"
  assigned-class: "rule met"
- sequence-change: "A91G C105U C131A"
  assigned-class: "rule not met"
- sequence-change: "C38U C57A C87A"
  assigned-class: "rule not met"
- sequence-change: "A122G U139C"
  assigned-class: "rule not met"
- sequence-change: "A40C U61A C76A"
  assigned-class: "rule not met"

Prompt line: Determine whether measured polymerase ribozyme fitness (log ratio) meets or exceeds -3 for U6A C96U
Response line: rule met

Prompt line: Reported polymerase ribozyme fitness (log ratio) at or above -3? G83U C95G
Response line: rule met

Prompt line: In plain terms: is recorded polymerase ribozyme fitness (log ratio) at least -3 for U13A U15C A28G U33G C79A C118U U148G ?
Response line: rule not met

Prompt line: Is reported polymerase ribozyme fitness (log ratio) greater than or equal to -3 here: C54U A66U C85U
Response line: rule not met

Prompt line: For this variant, is measured polymerase ribozyme fitness (log ratio) -3 or higher? U6G C54U G81A U135G
Response line: rule not met

Prompt line: Decide: polymerase ribozyme fitness (log ratio) of U15G G25C C51A C96G C149G >= -3?
Response line: rule not met
